target: UniProtKB P55211; test: Kinetic compound screening, progress curve method, caspase-9; format: biochemical; conditions: Table III; Ki(app) = Kass or Kobs/I; 50 nM active caspase-9; NI = no inhibition at concentrations tested
Sequence (P55211 whole entry): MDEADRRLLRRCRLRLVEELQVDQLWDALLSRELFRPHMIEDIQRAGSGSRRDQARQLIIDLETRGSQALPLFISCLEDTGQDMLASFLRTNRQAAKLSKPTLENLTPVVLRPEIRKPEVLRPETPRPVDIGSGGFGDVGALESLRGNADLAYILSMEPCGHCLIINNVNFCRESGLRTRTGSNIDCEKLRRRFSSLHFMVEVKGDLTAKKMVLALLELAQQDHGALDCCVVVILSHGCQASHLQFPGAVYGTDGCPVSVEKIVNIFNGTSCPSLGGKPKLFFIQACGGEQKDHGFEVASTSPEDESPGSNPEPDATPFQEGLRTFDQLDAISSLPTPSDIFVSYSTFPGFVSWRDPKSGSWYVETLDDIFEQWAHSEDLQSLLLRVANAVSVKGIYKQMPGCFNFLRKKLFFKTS
VALUE KIND: Ki(app) Caspase-9

Reference set (3 entries):
{"COMPOUND": "Cc1cccc(C)c1C(=O)OCC(=O)[C@H](CC(=O)O)NC(=O)[C@@H](NC(=O)[C@H](CCC(=O)O)NC(=O)[C@H](CC(C)C)NC(=O)Cc1ccc(O)c([N+](=O)[O-])c1)C(C)O (stereo partly drawn) [AB08, Np-L-E- T-D-DMBA]", "RESULT": "<5,000 M^−1s^−1"}
{"COMPOUND": "Cc1cccc(C)c1C(=O)OCC(=O)[C@H](CC(=O)O)NC(=O)[C@@H](NC(=O)[C@H](CCC(=O)O)NC(=O)[C@H](CC(=O)O)NC(=O)Cc1ccc(O)c([N+](=O)[O-])c1)C(C)C [AB09, Np-D-E- V-D-DMBA]", "RESULT": "<5,000 M^−1s^−1"}
{"COMPOUND": "Cc1cccc(C)c1C(=O)OCC(=O)[C@H](CC(=O)O)NC(=O)[C@H](Cc1cc[nH]c1)NC(=O)[C@H](CCC(=O)O)NC(=O)[C@H](CC(C)C)NC(=O)Cc1ccc(O)c([N+](=O)[O-])c1 [AB07, Np-L-E- H-D-DMBA]", "RESULT": "20,141 M^−1s^−1"}

Now for another entry.
Which Ki(app) Caspase-9 value is on record for Cc1ccc(C[C@H](NC(=O)Cc2ccc(O)c([N+](=O)[O-])c2)C(=O)N[C@@H](CCC(=O)O)C(=O)N[C@H](C(=O)N[C@@H](CC(=O)O)C(=O)COC(=O)c2c(C)cccc2C)C(C)O)cc1 (stereo partly drawn) [AB20, Np-29-E-T-D-DMBA] ?
41,300 M^−1s^−1

Values from patent US20100068150A1
